Provide the recorded pKi for the entries that follow.
Molecular target: trypsin from bovine pancreas (Bos taurus)
Sequence (P00760 24-246): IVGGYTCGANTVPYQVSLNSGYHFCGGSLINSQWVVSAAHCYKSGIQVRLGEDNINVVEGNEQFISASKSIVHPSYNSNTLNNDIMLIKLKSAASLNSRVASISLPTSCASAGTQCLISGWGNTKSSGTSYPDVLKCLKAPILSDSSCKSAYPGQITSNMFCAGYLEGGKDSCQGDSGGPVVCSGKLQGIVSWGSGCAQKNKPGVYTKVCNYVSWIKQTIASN
pKi (log units): -log10 of the concentration in mol/L.

Lab note: COc1cc(C)c(S(=O)(=O)N[C@@H](CC(=O)N[C@H]2O[C@@H](C)[C@@H](O)[C@@H](O)[C@@H]2O)C(=O)N[C@H](Cc2ccc(C(=N)N)cc2)C(=O)N2CCCCC2)c(C)c1C.Cl [Compound 49, hydrochloride] gave pKi of 6.27

Kindly note the recorded pKi for COc1cc(C)c(S(=O)(=O)N[C@@H](CC(=O)N[C@@H]2O[C@H](C(=O)O)[C@@H](O)[C@H](O)[C@H]2O)C(=O)N[C@H](Cc2ccc(C(=N)N)cc2)C(=O)N2CCCCC2)c(C)c1C.Cl [Compound 30, hydrochloride] , which is 6.46

Short answer for COc1cc(C)c(S(=O)(=O)N[C@@H](CC(=O)O)C(=O)N[C@H](Cc2ccc(C(=N)N)cc2)C(=O)N2CCCCC2)c(C)c1C.Cl [Compound 43] : pKi was 6.73

Item: COc1cc(C)c(S(=O)(=O)N[C@@H](CC(=O)N[C@@H]2O[C@H](CO)[C@H](O)[C@H](O)[C@H]2NC(C)=O)C(=O)N[C@H](Cc2ccc(C(=N)N)cc2)C(=O)N2CCCCC2)c(C)c1C.Cl [Compound 50] | pKi: 6.22

Looking up COc1cc(C)c(S(=O)(=O)N[C@@H](CC(=O)N[C@@H]2O[C@H](CO)[C@H](O)[C@H](O)[C@H]2O)C(=O)N[C@H](Cc2ccc(C(=N)N)cc2)C(=O)N2CCCCC2)c(C)c1C.Cl [Compound 41, hydrochloride] , I found its pKi recorded as 6.43

Numbers sourced from patent US5556941A.
